Cited source for all entries: patent US8846601B2

Target: hMC4-R (Homo sapiens (Human), UniProt P32245)
Sequence (P32245 whole entry): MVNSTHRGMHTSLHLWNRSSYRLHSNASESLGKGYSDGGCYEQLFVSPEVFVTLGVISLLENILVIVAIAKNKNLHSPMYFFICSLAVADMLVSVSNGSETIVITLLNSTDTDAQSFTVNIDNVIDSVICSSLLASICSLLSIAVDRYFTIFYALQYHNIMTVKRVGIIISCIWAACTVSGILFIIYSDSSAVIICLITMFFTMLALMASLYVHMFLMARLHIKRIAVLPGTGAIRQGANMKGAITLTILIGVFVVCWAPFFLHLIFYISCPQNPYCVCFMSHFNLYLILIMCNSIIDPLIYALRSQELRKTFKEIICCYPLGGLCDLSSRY
Experiment: Competitive inhibition binding assay using [I125]-NDP-α-MSH, hMC4-R membranes
Conditions: averaged; [I125]-NDP-α-MSH (values not marked *); read-out: MC4-R Ki
pKi: −log10 of the molar value. Peptide text beside a SMILES is read from it.
Recorded Endpoint: pKi

CC(=O)N[C@@H](CCCNC(=N)N)C(=O)N[C@H]1CC(=O)NCCCC[C@@H](C(N)=O)NC(=O)[C@H](Cc2c[nH]c3ccccc23)NC(=O)[C@H](CCCNC(=N)N)NC(=O)[C@@H](Cc2ccccc2)NC(=O)[C@H](Cc2cccc(C(N)=O)c2)NC1=O [compound 49]: 7.82
CC(=O)N[C@@H](CCCNC(=N)N)C(=O)N[C@H]1CCCNC(=O)CC[C@@H](C(N)=O)NC(=O)[C@H](Cc2c[nH]c3ccccc23)NC(=O)[C@H](CCCNC(=N)N)NC(=O)[C@@H](Cc2ccccc2)NC(=O)[C@H](Cc2c[nH]cn2)NC1=O [compound 75] (HELM PEPTIDE1{[ac].R.[Orn].H.[dF].R.W.E.[am]}$PEPTIDE1,PEPTIDE1,3:R3-8:R3$$$V2.0): 9.22

1. CC(=O)N[C@@H](CCCNC(=N)N)C(=O)N[C@H]1CC(=O)NCCCC[C@@H](C(N)=O)NC(=O)[C@H](Cc2c[nH]c3ccccc23)NC(=O)[C@H](CCCNC(=N)N)NC(=O)[C@@H](Cc2cccc3ccccc23)NC(=O)[C@H](Cc2c[nH]cn2)NC1=O [compound 19]
2. CCCCC(=O)N[C@H]1CCC(=O)NCC[C@@H](C(=O)N[C@@H](Cc2c[nH]c3ccccc23)C(N)=O)NC(=O)[C@H](CCCNC(=N)N)NC(=O)[C@@H](Cc2ccccc2)NC(=O)[C@H](Cc2c[nH]cn2)NC1=O [compound 153]
Query: Identify the entry with the smaller pKi: 1 or 2 . Your choice should be expressed through its label.
Result: 2
(2: 6.44, 1: 8.52)

----------
Target: hMC4-R (Homo sapiens (Human))
Assay: Competitive binding assay using Eu-NDP-α-MSH (TRF), hMC4-R membranes
Conditions: averaged; Eu-NDP-α-MSH (values marked *); read-out: MC4-R Ki
Recorded Endpoint: pKi
Units for pKi: none; it is -log10 of a concentration expressed in mol/L.

Query: Missing value: pKi, hMC4-R (Homo sapiens (Human)), entry CC(=O)NC[C@@H]1NC(=O)[C@@H](NC(=O)[C@H](CCCNC(=N)N)NC(C)=O)CC(=O)NCCCC[C@@H](C(N)=O)NC(=O)[C@H](Cc2c[nH]c3ccccc23)NC(=O)[C@H](CCCNC(=N)N)NC(=O)[C@@H](Cc2ccccc2)NC1=O . Fill in?
Result: 7.06

----------
Target: hMC4-R (Homo sapiens (Human))
Assay: Competitive binding assay using Eu-NDP-α-MSH (TRF), hMC4-R membranes
Details: averaged; Eu-NDP-α-MSH (values marked *); read-out: MC4-R Ki
Peptide text beside a SMILES is read from it.
Recorded Endpoint: Ki (nM)

CC(=O)N[C@@H](CCCNC(=N)N)C(=O)N[C@H]1CCC(=O)NCCC[C@@H](C(=O)NC2CC2)NC(=O)[C@H](Cc2c[nH]c3ccccc23)NC(=O)[C@H](CCCNC(=N)N)NC(=O)[C@@H](Cc2ccccc2)NC(=O)[C@H](Cc2c[nH]cn2)NC1=O [compound 110] (HELM PEPTIDE1{[ac].R.E.H.[dF].R.W.[Orn].[C1CC1N[*:1]]}$PEPTIDE1,PEPTIDE1,3:R3-8:R3$$$V2.0): 1
CC(=O)N[C@@H](CCCNC(=N)N)C(=O)N[C@H]1CC(=O)NCCCC[C@@H](C(N)=O)NC(=O)[C@H](Cc2c[nH]c3ccccc23)NC(=O)[C@H](CCCNC(=N)N)NC(=O)[C@@H](Cc2ccccc2)NC(=O)[C@@H]2C[C@@H](OCc3ccccc3)CN2C1=O [compound 15]: 0.7
CC(=O)N[C@@H](CCCNC(=N)N)C(=O)N[C@H]1CC(=O)NCCCC[C@@H](C(N)=O)NC(=O)[C@H](Cc2c[nH]c3ccccc23)NC(=O)[C@H](CCCNC(=N)N)NC(=O)[C@@H](Cc2ccccc2)NC(=O)[C@H](CCCNC(=N)N)NC1=O [compound 28]: 4
CCNC(=O)[C@@H]1CCCNC(=O)CC[C@H](NC(=O)[C@H](CCCNC(=N)N)NC(C)=O)C(=O)N[C@@H](Cc2c[nH]cn2)C(=O)N[C@H](Cc2ccccc2)C(=O)N[C@@H](CCCNC(=N)N)C(=O)N[C@@H](Cc2c[nH]c3ccccc23)C(=O)N1 [compound 109] (HELM PEPTIDE1{[ac].R.E.H.[dF].R.W.[Orn].[CCN[*:1]]}$PEPTIDE1,PEPTIDE1,3:R3-8:R3$$$V2.0): 6
CC(=O)N[C@@H](CCCNC(=N)N)C(=O)N[C@H]1CC(=O)NCCCC[C@@H](C(N)=O)NC(=O)[C@H](Cc2c[nH]c3ccccc23)NC(=O)[C@H](CCCCN)NC(=O)[C@@H](Cc2ccccc2)NC(=O)[C@H](Cc2c[nH]cn2)NC1=O [compound 6] (HELM PEPTIDE1{[ac].R.D.H.[dF].K.W.K.[am]}$PEPTIDE1,PEPTIDE1,3:R3-8:R3$$$V2.0): 533
CC(=O)N[C@@H](CCCNC(=N)N)C(=O)N[C@H]1CC(=O)NCCCC[C@@H](C(N)=O)NC(=O)[C@H](Cc2c[nH]c3ccccc23)NC(=O)[C@H](CCCNC(=N)N)NC(=O)[C@@H](Cc2ccccc2)NC(=O)[C@H](CN)NC1=O [compound 62]: 80

I. CC(=O)N[C@@H](CCCNC(=N)N)C(=O)N[C@H]1CC(=O)NCCCC[C@@H](C(=O)O)NC(=O)[C@H](Cc2c[nH]c3ccccc23)NC(=O)[C@H](CCCNC(=N)N)NC(=O)[C@@H](Cc2ccccc2)NC(=O)[C@H](CCCNC(=N)N)NC1=O [compound 73]
II. CC(=O)N[C@@H](CCCNC(=N)N)C(=O)N[C@H]1CC(=O)NCCCC[C@@H](C(N)=O)NC(=O)[C@H](Cc2c[nH]c3ccccc23)NC(=O)[C@H](CCCNC(=N)N)NC(=O)[C@@H](Cc2ccccc2)NC(=O)[C@H](CNC(=O)[C@H]2CCNC2)NC1=O [compound 118]
Query: Form: Entry with minimum Ki (choose one): I / II Output the label that corresponds to your choice.
Result: I
(I: 60 nM, II: 145 nM)

----------
Molecular target: hMC4-R (Homo sapiens (Human))
Assay: Competitive binding assay using Eu-NDP-α-MSH (TRF), hMC4-R membranes
Settings: averaged; Eu-NDP-α-MSH (values marked *); read-out: MC4-R Ki
Recorded Endpoint: Ki (µM)

Below, each entry is followed by its recorded Ki result.
CC(=O)N[C@@H](CCCNC(=N)N)C(=O)N[C@H]1CC(=O)NCCCC[C@@H](C(N)=O)NC(=O)[C@H](Cc2c[nH]c3ccccc23)NC(=O)[C@H](CCCNC(=N)N)NC(=O)[C@@](C)(Cc2ccccc2)NC(=O)[C@H](Cc2c[nH]cn2)NC1=O: 0.047
CC(=O)N[C@@H](CCCNC(=N)N)C(=O)N[C@H]1CC(=O)NCCCC[C@@H](C(N)=O)NC(=O)[C@H](Cc2c[nH]c3ccccc23)NC(=O)[C@H](CCCNC(=N)N)NC(=O)[C@@H](Cc2ccccc2)NC(=O)[C@@H]2C[C@@H](Cc3ccccc3Cl)CN2C1=O: 0.008

a. CC(=O)N[C@H](CCCNC(=N)N)C(=O)N[C@H]1CC(=O)NCCCC[C@@H](C(N)=O)NC(=O)[C@H](Cc2c[nH]c3ccccc23)NC(=O)[C@H](CCCNC(=N)N)NC(=O)[C@@H](Cc2ccccc2)NC(=O)[C@H](C)NC1=O
b. CC(=O)N[C@@H](CCCNC(=N)N)C(=O)N[C@H]1CCNC(=O)CCC[C@@H](C(N)=O)NC(=O)[C@H](Cc2c[nH]c3ccccc23)NC(=O)[C@H](CCCNC(=N)N)NC(=O)[C@@H](Cc2ccccc2)NC(=O)[C@H](CCN)NC1=O
Query: Given a and b , report the one with the higher recorded Ki. # answer = label of selected item
Result: a
(a: 0.046 µM, b: 0.004 µM)

----------
Reported pKi values for the following compounds.
Molecular target: hMC4-R (Homo sapiens (Human), UniProt P32245)
Assay: Competitive binding assay using Eu-NDP-α-MSH (TRF), hMC4-R membranes
Details: averaged; Eu-NDP-α-MSH (values marked *); read-out: MC4-R Ki
Peptide text beside a SMILES is read from it.
pKi field: float, defined as -log10 of concentration (mol/L).

Below are worked cases with known answers.
CC(=O)N[C@@H](CCCNC(=N)N)C(=O)N[C@H]1CC(=O)NCCCC[C@@H](C(N)=O)NC(=O)[C@H](Cc2c[nH]c3ccccc23)NC(=O)[C@H](CCCNC(=N)N)NC(=O)[C@@H](Cc2ccccc2)NC(=O)[C@H](CC(C)C)NC1=O [compound 12] (HELM PEPTIDE1{[ac].R.D.L.[dF].R.W.K.[am]}$PEPTIDE1,PEPTIDE1,3:R3-8:R3$$$V2.0): 7.48
CC(=O)N[C@@H](CCCNC(=N)N)C(=O)N[C@H]1CCCC(=O)NCC[C@@H](C(N)=O)NC(=O)[C@H](Cc2c[nH]c3ccccc23)NC(=O)[C@H](CCCNC(=N)N)NC(=O)[C@@H](Cc2ccccc2)NC(=O)[C@H](Cc2c[nH]cn2)NC1=O: 9.00

With those in mind, consider the next compound.
Query: What measured pKi goes with CC(=O)N[C@H](CCCNC(=N)N)C(=O)N[C@H]1CCC(=O)NCCC[C@@H](C(=O)O)NC(=O)[C@H](Cc2c[nH]c3ccccc23)NC(=O)[C@H](CCCNC(=N)N)NC(=O)[C@@H](Cc2ccccc2)NC(=O)[C@H](Cc2c[nH]cn2)NC1=O [compound 85] (HELM PEPTIDE1{[ac].[dR].E.H.[dF].R.W.[Orn]}$PEPTIDE1,PEPTIDE1,3:R3-8:R3$$$V2.0) ?
Result: 7.40
